TEST SYSTEM: human LAG3 expressed on cells (human) (UniProt P18627)
Sequence (P18627 23-525): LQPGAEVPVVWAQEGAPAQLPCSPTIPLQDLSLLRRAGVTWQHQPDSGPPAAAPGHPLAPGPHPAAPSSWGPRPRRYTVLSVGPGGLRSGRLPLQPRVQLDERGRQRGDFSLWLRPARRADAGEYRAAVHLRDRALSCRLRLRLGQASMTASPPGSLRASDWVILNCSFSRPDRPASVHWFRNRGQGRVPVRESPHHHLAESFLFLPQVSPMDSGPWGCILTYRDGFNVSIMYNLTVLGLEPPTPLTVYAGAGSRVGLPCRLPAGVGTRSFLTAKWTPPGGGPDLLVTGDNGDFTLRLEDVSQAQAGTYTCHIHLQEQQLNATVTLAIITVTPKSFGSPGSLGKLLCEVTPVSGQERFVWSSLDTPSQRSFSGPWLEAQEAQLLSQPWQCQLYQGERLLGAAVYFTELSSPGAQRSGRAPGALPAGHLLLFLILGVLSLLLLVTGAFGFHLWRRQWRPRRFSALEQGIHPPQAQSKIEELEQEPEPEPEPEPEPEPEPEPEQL
METHOD NOTES: cell-based or functional assay
MEASUREMENT KIND: IL-2, % of BMS, at 0.001016105 ug/mL (%)
The reply should contain only the number, in %.

sdAb fusion 25-17-1 (Fc fusion, not shown: a dimerising Fc or GST) QLQLVESGGGLVQAGGSLRLSCAASGSIESFSFMGWYRQAPGKQRELVAGFTGAASLSFSTYTDAVKGRFTISRDNAKNTVYLQMNSLKPEDTAVYFCNVDPWSQSWPGRYWGQGTQVTVSSGGGGSQLQLVESGGGLVQPGGSLRLSCAASGLTLDGYAIGWFRQAPGKEREGLACISGSDGSTHYLDSVKGRFTISRDNGKNTMALQMNSLQFGDTAIYYCAARRGSCSGSWTYWGQGTQVTVSS
0.0133
sdAb fusion 25-17-2 (Fc fusion, not shown: a dimerising Fc or GST) QLQLVESGGGLVQAGGSLRLSCAASGSIESFSFMGWYRQAPGKQRELVAGFTGAASLSFSTYTDAVKGRFTISRDNAKNTVYLQMNSLKPEDTAVYFCNVDPWSQSWPGRYWGQGTQVTVSSGGGGSGGGGSQLQLVESGGGLVQPGGSLRLSCAASGLTLDGYAIGWFRQAPGKEREGLACISGSDGSTHYLDSVKGRFTISRDNGKNTMALQMNSLQFGDTAIYYCAARRGSCSGSWTYWGQGTQVTVSSEPKSCDKTHTCPPCPAPELLG
-0.00048

Consider the additional binder presented here.
Q: State, in one line, measured IL-2, % of BMS, at 0.001016105 ug/mL of sdAb fusion 25-2015-1 (Fc fusion, not shown: a dimerising Fc or GST) QLQLVESGGGLVQAGGSLRLSCAASGSIESFSFMGWYRQAPGKQRELVAGFTGAASLSFSTYTDAVKGRFTISRDNAKNTVYLQMNSLKPEDTAVYFCNVDPWSQSWPGRYWGQGTQVTVSSGGGGSQLQLVESGGGLAQTGGSLRLSCAAAGFTFDDTATGWFRQAPGKNREGVACISSSDGRIHYIDSAKGRFTISKDNAKKTVYLQMDSLKPEDTAVYYCAAARKGSTDCQGAIWGSWGQGTQVIVSSEPKSCDKTHTCPPCPAPELLG
Ans: 0.000292
